The origin of these recorded values is paper PMC8861431.

Entries annotated with measured half-life at 100 µM
Assay: Media stability studies (stirred medium without serum, 37°C)
Type: physicochemical
Details: 37°C, aerobic, medium without serum/cells, 100 µM; read-out: Half-life (T1/2) in stirred medium
Report only the number, with the unit h understood.

Give its half-life at 100 µM value. Item: CCN1CCN(C(=O)c2cc(N(CCBr)CCOS(C)(=O)=O)c(S(C)(=O)=O)cc2NO)CC1 [CP-506H]
0.175

Give its half-life at 100 µM value. Item: CCN1CCN(C(=O)c2cc(N(CCCl)CCCl)c(S(C)(=O)=O)cc2N)CC1 [CP-506M-Cl2]
4.52

Give its half-life at 100 µM value. Item: CCN1CCN(C(=O)c2cc(N(CCBr)CCOS(C)(=O)=O)c(S(C)(=O)=O)cc2N)CC1 [CP-506M]
0.127

Give its half-life at 100 µM value. Item: CCN1CCN(C(=O)c2cc(N(CCCl)CCCl)c(S(C)(=O)=O)cc2NO)CC1 [CP-506H-Cl2]
2.35

----------
Test system: spheroid co-cultures of POR-R activator and PORko-G target cells
Assay: Spheroid growth delay assay
Assay type: cell-based
Conditions: Homo sapiens, 4 h, 10% activator cells; 4 h exposure, anoxic; read-out: IC50 for inhibition of spheroid growth
observable: pIC50
In plain terms, pIC50 is the concentration in mol/L turned into minus its base-10 logarithm.

Give its pIC50 value. Item: CCN1CCN(C(=O)c2cc(N(CCBr)CCOS(C)(=O)=O)c(S(C)(=O)=O)cc2[N+](=O)[O-])CC1 [CP-506]
4.87

----------
Entries annotated with measured half-life at 100 µM
Assay: Media stability studies (stirred medium without serum, 37°C)
Format: physicochemical
Details: buffer, Table 1; stirred culture medium at 37°C; read-out: Half-life: time required to reduce the concentration of drug to half of its initial value (converted)
Report only the number, with the unit h understood.

{"columns": ["compound", "observable", "quantityUnit", "reported"],
 "data": [
  ["CCN1CCN(C(=O)c2cc(N(CCBr)CCOS(C)(=O)=O)c(S(C)(=O)=O)cc2[N+](=O)[O-])CC1", "half-life at 100 µM", "h", 30]
]}

Give its half-life at 100 µM value. Item: CCN1CCN(C(=O)c2cc(N(CCBr)CCOS(C)(=O)=O)c(S(C)(=O)=O)cc2N)CC1 [CP-506M]
0.13

Give its half-life at 100 µM value. Item: CCN1CCN(C(=O)c2cc(N(CCCl)CCCl)c(S(C)(=O)=O)cc2N)CC1 [CP-506M-Cl2]
4.52

Give its half-life at 100 µM value. Item: CCN1CCN(C(=O)c2cc(N(CCBr)CCOS(C)(=O)=O)c(S(C)(=O)=O)cc2NO)CC1 [CP-506H]
0.18

----------
Assay: Media stability studies (stirred medium without serum, 37°C)
Type: physicochemical
Conditions: stirred medium without serum or cells; 37°C, aerobic, medium without serum/cells, 100 µM; read-out: Half-life (T1/2) in stirred medium
observable: half-life at 100 µM (min)
Report only the number, with the unit min understood.

{"columns": ["compound", "observable", "quantityUnit", "reported"],
 "data": [
  ["CCN1CCN(C(=O)c2cc(N(CCO)CCO)c(S(C)(=O)=O)cc2NO)CC1 [CP-506H-(OH)2]", "half-life at 100 µM", "min", 2.5]
]}

Give its half-life at 100 µM value. Item: CCN1CCN(C(=O)c2cc(N(CCO)CCO)c(S(C)(=O)=O)cc2N)CC1 [CP-506M-(OH)2]
394
